Hello, the source for this data is patent US11982671B2, in case you need it.

Tested on: PBMC from RA patients
Test: IFN-γ/IL17 Double-Color ELISpot with GNS, FLNA and microbial peptides
Assay type: cell-based, human
Settings: 24 NORA patients, single peptide 1 μM
Please mark yes (1) if the recorded patients with T cell reactivity >3SD above the mean values in HC is equal to or greater than 30%, and no (0) if it falls below.

Would you please look over these solved cases?
1) QGFVVKTANAGAL (Prevotella sp. HUN102) [corresponding Prevotella peptide, peptide from an uncharacterized protein of Prevotella sp., homologous to the FLNA peptide]; yes (1)
2) DVPFFMMWTTPLPH (Parabacteroides sp. HGS0025) [Parabacteroides peptide, peptide from N-acetylgalactosamine-6-sulfatase of Parabacteroides sp]; no (0)

Hi team, for KKPFFMMVAMNPPH (Prevotella sp. DNF00663) [Prevotella peptide, peptide from arylsulfatase protein of Prevotella sp., homologous to the GNS peptide] , is the recorded patients with T cell reactivity >3SD above the mean values in HC at or above 30%? yes (1)

Can ANFMINVSNAGAL (Butyricimonas sp. Marseille-P2440) [Butyricimonas peptide, peptide from an uncharacterized protein of Butyricimonas sp] be said to have patients with T cell reactivity >3SD above the mean values in HC at or above 30%? no (0)

patients with T cell reactivity >3SD above the mean values in HC >= 30% for NPAEFVVNTSNAGAG [FLNA peptide] ? yes (1)

Could you please find out whether FEPFFMMIATPAPH (listed as Homo sapiens) [GNS peptide, HLA-DR-presented self peptide from N-acetylglucosamine-6-sulfatase] has patients with T cell reactivity >3SD above the mean values in HC that meets 30% or exceeds it? yes (1)
